experiment: Effect on the proliferation Wild -type and Drug- resistant KB subclones passaged uM; assay type: functional, Homo sapiens
Starred links: 1 amine or outer side, 2 acyl side, 3 side chain; linkers in the order of their positions; H or OH if unused. Positions of bridges follow the written chain, without caps; N, C: chain ends. Non-standard residues stand in square brackets, D forms with d. Residues, ends and D or L forms follow the SMILES beside them. Chains are numbered I, II in the order given. Actinocin(1to9) = Cc1c2oc3c(C)ccc(C(=O)[*:2])c3nc-2c(C(=O)[*:1])c(N)c1=O; NMeV = CN[C@H](C(=O)O)C(C)C; Sar = CNCC(=O)O
Catalogue of compounds with associated IC50
Enter your answer as a number in nM; do not include the unit.

Cc1c2oc3c(C)ccc(C(=O)N[C@@H]4C(=O)N[C@H](C(C)C)C(=O)N5CCC[C@H]5C(=O)N(C)CC(=O)N(C)[C@@H](C(C)C)C(=O)O[C@@H]4C)c3nc-2c(C(=O)N[C@@H]2C(=O)N[C@H](C(C)C)C(=O)N3CCC[C@H]3C(=O)N(C)CC(=O)N(C)[C@@H](C(C)C)C(=O)O[C@@H]2C)c(N)c1=O [DACTINOMYCIN] (I: T[dV]P[Sar][NMeV] / II: T[dV]P[Sar][NMeV]; ester I:1-I:C, II:1-II:C; linker I:N-II:N via Actinocin(1to9)) | 50

Proceed to the following item.
Item COc1cccc2c1C(=O)c1c(O)c3c(c(O)c1C2=O)C[C@@](O)(C(=O)CO)C[C@@H]3O[C@H]1C[C@H](N)[C@H](O)[C@H](C)O1 has what recorded IC50?
400

----------
test: Effect on the proliferation wild-type and drug-resistant KB subclones passaged uM; format: functional, Homo sapiens
testReadout: pIC50
Note on units: pIC50 is unitless, being -log10 of a concentration expressed in mol/L.

Item COc1cc([C@@H]2c3cc4c(cc3[C@@H](O[C@@H]3O[C@@H]5CO[C@@H](C)O[C@H]5[C@H](O)[C@H]3O)[C@H]3COC(=O)[C@H]23)OCO4)cc(OC)c1O [ETOPOSIDE] has what recorded pIC50?
5.21

----------
tested on: CCRF-CEM; assay: Compound concentration required to reduce the cell proliferation of human acute T-lymphoblastic leukemia CCRF-CEM cells by 50%, using MTT method.; format: functional, cell-based
testReadout: pIC50
Note on units: pIC50 is unitless, being -log10 of a concentration expressed in mol/L.

O=c1ccc2nc3ccccc3oc-2c1 | 4.72

Proceed to the following item.
Item CC(=O)c1c2nc3c(C(C)=O)cccc3oc-2cc(=O)c1N has what recorded pIC50?
6.05

----------
test system: HEp-2; assay: Antitumor activity against larynx carcinoma Hep-2 cells; format: functional, cell-based; conditions: Homo sapiens
Starred links: 1 amine or outer side, 2 acyl side, 3 side chain; linkers in the order of their positions; H or OH if unused. Positions of bridges follow the written chain, without caps; N, C: chain ends. Non-standard residues stand in square brackets, D forms with d. Residues, ends and D or L forms follow the SMILES beside them. Chains are numbered I, II in the order given. Actinocin(1to9) = Cc1c2oc3c(C)ccc(C(=O)[*:2])c3nc-2c(C(=O)[*:1])c(N)c1=O; NMeV = CN[C@H](C(=O)O)C(C)C; Sar = CNCC(=O)O
testReadout: pIC50
Note on units: pIC50 is unitless, being -log10 of a concentration expressed in mol/L.

Please review the entries below; each comes with its answer.
COc1cccc2c1C(=O)c1c(O)c3c(c(O)c1C2=O)C[C@@](O)(C(=O)CO)C[C@@H]3O[C@H]1C[C@H](N)[C@H](O)[C@H](C)O1 | 7.40
Cc1c2oc3c(C)ccc(C(=O)N[C@@H]4C(=O)N[C@H](C(C)C)C(=O)N5CCC[C@H]5C(=O)N(C)CC(=O)N(C)[C@@H](C(C)C)C(=O)O[C@@H]4C)c3nc-2c(C(=O)N[C@@H]2C(=O)N[C@H](C(C)C)C(=O)N3CCC[C@H]3C(=O)N(C)CC(=O)N(C)[C@@H](C(C)C)C(=O)O[C@@H]2C)c(N)c1=O [DACTINOMYCIN] (I: T[dV]P[Sar][NMeV] / II: T[dV]P[Sar][NMeV]; ester I:1-I:C, II:1-II:C; linker I:N-II:N via Actinocin(1to9)) | 8.40
O=c1cc2oc3ccccc3nc-2c2cccnc12 | 7.40

Proceed to the following item.
Hello, I am looking for reported pIC50 with HEp-2 for O=c1cc2sc3ccccc3nc-2c2cccnc12 . Could you help?
7.00

----------
tested on: CCRF-CEM; test: Antitumor activity against human acute T-lymphoblastic leukemia CCRF-CEM cells; type: functional, cell-based
Starred links: 1 amine or outer side, 2 acyl side, 3 side chain; linkers in the order of their positions; H or OH if unused. Positions of bridges follow the written chain, without caps; N, C: chain ends. Non-standard residues stand in square brackets, D forms with d. Residues, ends and D or L forms follow the SMILES beside them. Chains are numbered I, II in the order given. Actinocin(1to9) = Cc1c2oc3c(C)ccc(C(=O)[*:2])c3nc-2c(C(=O)[*:1])c(N)c1=O; NMeV = CN[C@H](C(=O)O)C(C)C; Sar = CNCC(=O)O
testReadout: IC50 (nM)
Enter your answer as a number in nM; do not include the unit.

Please review the entries below; each comes with its answer.
Cc1c2oc3c(C)ccc(C(=O)N[C@@H]4C(=O)N[C@H](C(C)C)C(=O)N5CCC[C@H]5C(=O)N(C)CC(=O)N(C)[C@@H](C(C)C)C(=O)O[C@@H]4C)c3nc-2c(C(=O)N[C@@H]2C(=O)N[C@H](C(C)C)C(=O)N3CCC[C@H]3C(=O)N(C)CC(=O)N(C)[C@@H](C(C)C)C(=O)O[C@@H]2C)c(N)c1=O [DACTINOMYCIN] (I: T[dV]P[Sar][NMeV] / II: T[dV]P[Sar][NMeV]; ester I:1-I:C, II:1-II:C; linker I:N-II:N via Actinocin(1to9)) | 1
COc1cccc2c1C(=O)c1c(O)c3c(c(O)c1C2=O)C[C@@](O)(C(=O)CO)C[C@@H]3O[C@H]1C[C@H](N)[C@H](O)[C@H](C)O1 [DOXORUBICIN] | 20

Item O=c1cc2sc3ccccc3nc-2c2cccnc12 has what recorded IC50?
70

Item O=c1cc2oc3ccccc3nc-2c2cccnc12 has what recorded IC50?
10

----------
test system: HeLa; experiment: Compound concentration required to reduce the cell proliferation of cervix carcinoma Hela cells by 50%, using MTT method.; assay type: functional, cell-based; conditions: Homo sapiens
Catalogue of compounds with associated pIC50
Note on units: pIC50 is unitless, being -log10 of a concentration expressed in mol/L.

Please review the entries below; each comes with its answer.
CC(=O)Nc1cc2nc3ccccc3oc-2cc1=O | 5.09
CC(=O)c1c2nc3c(C(C)=O)cccc3oc-2cc(=O)c1N | 5.70

Proceed to the following item.
Hello, I am looking for reported pIC50 with HeLa for O=c1ccc2nc3ccccc3oc-2c1 . Could you help?
4.89

----------
system: CCRF-SB; test: Compound concentration required to reduce the cell proliferation of human acute B-lymphoblastic leukemia CCRF-SB cells by 50%, using MTT method; assay type: functional, cell-based
testReadout: IC50
Dear colleague, please send the value followed by its unit.

Hello, I am looking for reported IC50 with CCRF-SB for Nc1cc2nc3ccccc3oc-2cc1=O . Could you help?
1000 nM

----------
tested on: G-361; test: Antitumor activity against human skin melanoma G-361 cells; assay type: functional, cell-based
Starred links: 1 amine or outer side, 2 acyl side, 3 side chain; linkers in the order of their positions; H or OH if unused. Positions of bridges follow the written chain, without caps; N, C: chain ends. Non-standard residues stand in square brackets, D forms with d. Residues, ends and D or L forms follow the SMILES beside them. Chains are numbered I, II in the order given. Actinocin(1to9) = Cc1c2oc3c(C)ccc(C(=O)[*:2])c3nc-2c(C(=O)[*:1])c(N)c1=O; NMeV = CN[C@H](C(=O)O)C(C)C; Sar = CNCC(=O)O
testReadout: pIC50
Note on units: pIC50 is unitless, being -log10 of a concentration expressed in mol/L.

Please review the entries below; each comes with its answer.
Cc1c2oc3c(C)ccc(C(=O)N[C@@H]4C(=O)N[C@H](C(C)C)C(=O)N5CCC[C@H]5C(=O)N(C)CC(=O)N(C)[C@@H](C(C)C)C(=O)O[C@@H]4C)c3nc-2c(C(=O)N[C@@H]2C(=O)N[C@H](C(C)C)C(=O)N3CCC[C@H]3C(=O)N(C)CC(=O)N(C)[C@@H](C(C)C)C(=O)O[C@@H]2C)c(N)c1=O [DACTINOMYCIN] (I: T[dV]P[Sar][NMeV] / II: T[dV]P[Sar][NMeV]; ester I:1-I:C, II:1-II:C; linker I:N-II:N via Actinocin(1to9)) | 9.00
COc1cccc2c1C(=O)c1c(O)c3c(c(O)c1C2=O)C[C@@](O)(C(=O)CO)C[C@@H]3O[C@H]1C[C@H](N)[C@H](O)[C@H](C)O1 [DOXORUBICIN] | 7.05
O=c1cc2sc3ccccc3nc-2c2cccnc12 | 6.66

Proceed to the following item.
Item O=c1cc2oc3ccccc3nc-2c2cccnc12 has what recorded pIC50?
8.00
